What follows is a collection of pIC50 values obtained with UniProt:Q2M2I8.
In simple prose, pIC50 is minus the logarithm base ten of a concentration in moles per litre.

- Mol Smiles: "CN(C)[C@H]1CC[C@H](Nc2cc(Nc3ccccc3)c3ncc(-c4ccsc4)n3n2)CC1"
  Assay System: "UniProt:Q2M2I8"
  pIC50: 7.92

Turning now to a further record.
Write pIC50 of Cc1nc(-c2cccc(NC(=O)c3cnc4c(Nc5ccccc5)cc(N[C@H]5CC[C@H](N)CC5)nn34)c2)co1 ; system used: UniProt:Q2M2I8
7.10

* * *

target: GST-Xa-hAAK1 (Homo sapiens)
Sequence (Q2M2I8 whole entry): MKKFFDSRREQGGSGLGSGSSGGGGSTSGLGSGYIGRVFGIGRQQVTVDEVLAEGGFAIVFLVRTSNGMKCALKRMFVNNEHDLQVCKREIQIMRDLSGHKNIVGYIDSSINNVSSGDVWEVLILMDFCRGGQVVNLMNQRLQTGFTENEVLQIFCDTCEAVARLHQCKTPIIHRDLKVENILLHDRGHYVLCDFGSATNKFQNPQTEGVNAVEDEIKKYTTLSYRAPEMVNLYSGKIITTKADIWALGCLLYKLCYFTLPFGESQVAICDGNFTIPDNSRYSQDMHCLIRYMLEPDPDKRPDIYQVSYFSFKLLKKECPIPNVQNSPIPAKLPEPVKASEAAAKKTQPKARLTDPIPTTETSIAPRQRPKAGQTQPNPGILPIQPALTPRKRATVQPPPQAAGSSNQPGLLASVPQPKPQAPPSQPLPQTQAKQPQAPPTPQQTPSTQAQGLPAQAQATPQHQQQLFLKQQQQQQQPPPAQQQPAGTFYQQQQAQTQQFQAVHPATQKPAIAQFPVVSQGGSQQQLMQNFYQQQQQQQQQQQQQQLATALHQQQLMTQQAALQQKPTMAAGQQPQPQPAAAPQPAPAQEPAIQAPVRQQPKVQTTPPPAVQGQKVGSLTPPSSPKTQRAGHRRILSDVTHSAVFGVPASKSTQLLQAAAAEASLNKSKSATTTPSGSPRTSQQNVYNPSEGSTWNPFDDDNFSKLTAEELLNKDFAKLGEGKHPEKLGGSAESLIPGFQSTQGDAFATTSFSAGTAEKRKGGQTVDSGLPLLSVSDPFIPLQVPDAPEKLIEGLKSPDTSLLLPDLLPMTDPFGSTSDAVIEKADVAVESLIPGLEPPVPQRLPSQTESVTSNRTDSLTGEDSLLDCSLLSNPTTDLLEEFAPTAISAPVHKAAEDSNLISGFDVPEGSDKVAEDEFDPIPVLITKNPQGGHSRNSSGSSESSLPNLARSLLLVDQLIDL
pIC50: −log10 of the molar value.
Note to self: values exactly at 7 are True. So pIC50 at or above 7 is True, below is False.

- Compound: "N[C@H]1CC[C@H](Nc2cc(Nc3ccccc3)c3ncc(C(=O)Nc4cccc(-c5coc(-c6ccccc6)n5)c4)n3n2)CC1 [Example 6]"
  Assigned Category: "False"
- Compound: "CC(C)c1nnc(-c2cccc(NC(=O)c3cnc4ccc(N[C@H]5CC[C@H](N)CC5)nn34)c2)s1 [Example 12]"
  Assigned Category: "True"
- Compound: "CC(C)c1nnc(-c2cccc(NC(=O)c3cnc4c(Nc5ccccc5)cc(N[C@H]5CC[C@H](N)CC5)nn34)c2)s1 [Example 2]"
  Assigned Category: "True"
- Compound: "Cc1nc(-c2cccc(NC(=O)c3cnc4ccc(N[C@H]5CC[C@H](N)CC5)nn34)c2)co1 [Example 15]"
  Assigned Category: "False"

Given the entry N[C@H]1CC[C@H](Nc2cc(NC3CC3)c3ncc(-c4ccsc4)n3n2)CC1 [Example 21] , answer whether its pIC50 meets or surpasses 7.
True
